Reference source: ChEMBL document CHEMBL1154073

Target: Adenosine receptor A2b (Homo sapiens, UniProt P29275)
Sequence (P29275 whole entry): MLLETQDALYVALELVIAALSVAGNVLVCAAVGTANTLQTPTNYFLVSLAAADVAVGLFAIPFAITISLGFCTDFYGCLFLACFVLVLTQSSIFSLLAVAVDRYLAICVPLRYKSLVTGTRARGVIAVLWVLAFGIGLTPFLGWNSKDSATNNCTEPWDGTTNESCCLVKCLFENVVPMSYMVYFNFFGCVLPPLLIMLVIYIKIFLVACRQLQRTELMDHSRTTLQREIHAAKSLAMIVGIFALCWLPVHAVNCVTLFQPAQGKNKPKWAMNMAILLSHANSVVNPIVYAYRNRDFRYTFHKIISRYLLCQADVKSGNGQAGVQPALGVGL
Assay: Antagonist activity at human adenosine A2B receptor expressed in CHO cells assessed as inhibition of NECA-induced adenylyl cyclase activity
Exercise: state measured IC50 for each of the compounds provided.

Some compounds with known IC50 results, for comparison:
Cn1cc2c(nc(NC(=O)Cc3cccs3)n3nc(-c4ccco4)nc23)n1 = > 10 µM
CC(C)CCn1cc2c(nc(NC(=O)Cc3ccc4ccccc4c3)n3nc(-c4ccco4)nc23)n1 = > 10 µM
O=C(Cc1ccc2ccccc2c1)Nc1nc2nn(CCCc3ccccc3)cc2c2nc(-c3ccco3)nn12 = > 50 µM
O=C(Cc1ccc(Cl)cc1)Nc1nc2nn(CCCc3ccccc3)cc2c2nc(-c3ccco3)nn12 = > 10 µM
CCn1cc2c(nc(NC(=O)Cc3cccc4ccccc34)n3nc(-c4ccco4)nc23)n1 = > 50 µM

Hello, I would appreciate it if you could give IC50 for each entry below.
1. Cn1cc2c(nc(NC(=O)COc3ccc(Cl)cc3)n3nc(-c4ccco4)nc23)n1
2. Cn1cc2c(nc(NC(=O)Cc3ccc(-c4ccccc4)cc3)n3nc(-c4ccco4)nc23)n1
3. Cn1cc2c(nc(NC(=O)Cc3ccc(Cl)cc3)n3nc(-c4ccco4)nc23)n1
4. O=C(Cc1ccc2ccccc2c1)Nc1nc2nn(CCc3ccccc3)cc2c2nc(-c3ccco3)nn12

**Result**
1. > 10 µM
2. > 10 µM
3. > 50 µM
4. > 50 µM

Hello, I would appreciate it if you could give IC50 for each entry below.
1. O=C(Cc1ccc(-c2ccccc2)cc1)Nc1nc2nn(CCCc3ccccc3)cc2c2nc(-c3ccco3)nn12
2. Cn1cc2c(nc(NC(=O)Cc3ccc4ccccc4c3)n3nc(-c4ccco4)nc23)n1
3. O=C(COc1ccc(Cl)cc1)Nc1nc2nn(CCCc3ccccc3)cc2c2nc(-c3ccco3)nn12
4. O=C(Nc1nc2nn(CCCc3ccccc3)cc2c2nc(-c3ccco3)nn12)C(c1ccccc1)c1ccccc1
5. Cn1cc2c(nc(NC(=O)Cc3ccc(C(F)(F)F)cc3)n3nc(-c4ccco4)nc23)n1
6. O=C(Cc1c(Cl)cccc1Cl)Nc1nc2nn(CCCc3ccccc3)cc2c2nc(-c3ccco3)nn12
7. O=C(Cc1ccsc1)Nc1nc2nn(CCc3ccccc3)cc2c2nc(-c3ccco3)nn12

**Result**
["> 100 µM", "> 10 µM", "> 10 µM", "> 10 µM", "> 10 µM", "> 10 µM", "> 10 µM"]

Hello, I would appreciate it if you could give IC50 for each entry below.
1. O=C(Cc1ccccc1)Nc1nc2nn(CCc3ccccc3)cc2c2nc(-c3ccco3)nn12
2. Cn1cc2c(nc(NC(=O)Cc3cccc4ccccc34)n3nc(-c4ccco4)nc23)n1

**Result**
1. > 3 µM
2. > 10 µM
